Source of measurements: patent US9066936B2

- assay.text: Solubility of compound A in aqueous solutions with different pHs
- Format: physicochemical
- cond: aqueous buffer, thermodynamic from solid, pH 6.0 Britton Robinson buffer, 25° C.
- Method: An excess amount of compound A and an aqueous solution were placed in a test tube, and the mixture was shaken at 25° C. for 30 sec every 5 min. After 30 min, the solution was filtered with a 0.45 μm membrane filter to give a sample. Using the sample, the concentration of compound A was measured under the following HPLC conditions. detector: ultraviolet absorption photometer, measurement wavelength: 260 nm column: YMC-Pack ProC18, 3 μm, inner diameter: 6 mm, […]
measurement.kind: solubility at 30 min

Req: Quick check: solubility at 30 min of CCOc1nc2cccc(C(=O)OCc3oc(=O)oc3C)c2n1Cc1ccc(-c2ccccc2-c2noc(=O)[nH]2)cc1.[K] [compound A] ?
Resp: < 10 µg/mL
